- System under test: 5-HT2A (Homo sapiens)
- Assay details: Competitive radioligand binding (NIMH PDSP)
Label key: MET means Ki under 6 nM; NOT MET means Ki of 6 nM or more.

> print(dat)
                                   molecule  class.name
1  COc1cc([N+](=O)[O-])c(OC)cc1CCNCc1ccccc1[N+](=O)[O-] [25N-NBNO2 (15)]     NOT MET
2  COc1cc([N+](=O)[O-])c(OC)cc1CCNCc1cccc(C)c1O [25N-NB-2-OH-3-Me (18)]         MET
3  COc1cc([N+](=O)[O-])c(OC)cc1CCNCc1cccc(F)c1OC [25N-NB-2-MeO-3-F (19)]     NOT MET
4  COc1cc([N+](=O)[O-])c(OC)cc1CCNCc1ccccc1-c1ccccc1 [25N-NBPh (17)]         MET
5  COc1cc([N+](=O)[O-])c(OC)cc1CCNCc1cccc(O)c1 [25N-NB-3-OH (21)]     NOT MET

Input line: Report whether reported Ki is lower than 6 nM (strictly) for COc1cc([N+](=O)[O-])c(OC)cc1CCNCc1cccc(F)c1 [25N-NB-3-F (24)]
Output line: MET

Input line: Further, for COc1cc([N+](=O)[O-])c(OC)cc1CCNCc1ccc(C)cc1 [25N-NB-4-Me (23)] ?
Output line: MET

====

- System under test: 5-HT2A (Homo sapiens, UniProt P28223)
- Sequence (P28223 whole entry): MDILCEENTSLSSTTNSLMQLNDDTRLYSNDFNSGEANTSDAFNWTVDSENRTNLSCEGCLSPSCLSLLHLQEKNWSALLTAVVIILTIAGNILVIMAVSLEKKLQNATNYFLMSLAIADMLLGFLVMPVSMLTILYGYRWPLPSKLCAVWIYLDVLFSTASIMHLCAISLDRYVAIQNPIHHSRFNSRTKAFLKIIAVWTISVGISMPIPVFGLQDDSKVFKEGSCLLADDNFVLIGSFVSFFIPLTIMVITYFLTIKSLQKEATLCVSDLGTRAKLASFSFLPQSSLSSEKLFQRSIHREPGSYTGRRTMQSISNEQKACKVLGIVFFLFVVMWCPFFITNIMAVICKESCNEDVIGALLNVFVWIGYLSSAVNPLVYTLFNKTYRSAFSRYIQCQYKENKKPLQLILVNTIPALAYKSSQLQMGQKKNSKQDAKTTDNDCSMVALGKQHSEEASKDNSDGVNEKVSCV
- Assay details: cell-based
- Parameters: expressed in transfected cells; host or cells: HEK293T, transient
Readout: EC50 (µM)
One number for each entry, in µM.

> print(dat)
                                smiles.code    value
1  COc1cc(OC)c(OC)cc1CCNCc1ccccc1-c1ccc(O)cc1    0.617
2        COc1cc(Br)c(CCNCc2cccc(C)c2O)cc1OC  0.00646
3  COc1cc(OC)c(OC)cc1CCNCc1cccc(-c2ccccc2)c1    0.182
4  COc1cc(OC)c(OC)cc1CCNCc1ccc(-c2ccccc2)s1     1.07
5  COc1cc(OC)c(OC)cc1CCNCc1c[nH]nc1-c1ccccc1    0.537

Input line: Quick one: EC50 for COc1cc(CCNCc2cccc3ccccc23)cc(OC)c1Br ?
Output line: 0.17

====

For each entry below, report its EC50 value.
- System under test: 5-HT2A (Homo sapiens, UniProt P28223)
- Assay details: Ca2+ flux assay, 5-HT2A
- Assay type: cell-based
- Parameters: expressed in transfected cells
- Condition label: 5-HT2A EC50, nM, Ca2+ flux
Answers are plain numbers, in nM.

> print(dat)
                                   compound  value
1  COc1cc([N+](=O)[O-])c(OC)cc1CCNCc1ccccc1OC(F)F [25N-NBOCF2H (11)]   1.92
2  COc1cc([N+](=O)[O-])c(OC)cc1CCNCc1cccc(C)c1 [25N-NB-3-Me (22)]   2.27
3  COc1cc([N+](=O)[O-])c(OC)cc1CCNCc1ccccc1C [25N-NBMe (6)]   1.19

Fill in EC50 for each of the 3 compounds listed.
1. COc1cc([N+](=O)[O-])c(OC)cc1CCN [2C-N (1), reference compound]
2. COc1cc([N+](=O)[O-])c(OC)cc1CCNCc1ccccc1Cl [25N-NBCl (8)]
3. COc1cc([N+](=O)[O-])c(OC)cc1CCNCc1ccccc1I [25N-NBI (10)]

Output line:
4.56
2.03
3.29

Please look at the items below and tell me EC50 for each one, in order.
1. COc1cc([N+](=O)[O-])c(OC)cc1CCNCc1ccc(F)cc1 [25N-NB-4-F (25)]
2. COc1cc([N+](=O)[O-])c(OC)cc1CCNCc1ccc(C)cc1 [25N-NB-4-Me (23)]
3. COc1cc([N+](=O)[O-])c(OC)cc1CCNCc1ccccc1Br [25N-NBBr (9)]

Output line:
1: 19.7; 2: 38.3; 3: 2.36
